Numbers sourced from ChEMBL document CHEMBL5537135.

// reported MIC per item
- Test system: Pseudomonas aeruginosa
- measurementNotes: Antimicrobial activity against multidrug-resistant Pseudomonas aeruginosa 157 assessed as inhibition of visible bacterial growth incubated for 18 hrs by broth-dilution method
- Assay type: functional
Numbered stars: 1 amine (or outer) side, 2 acyl side, 3 side chain; on linkers, the order of the positions; unused ones are H or OH. Square brackets hold non-standard residues; d marks the D form. Peptide text beside a SMILES is read from it. * marks the point of attachment. X3 = CC(C)C[C@@H](CN(CC(N)=O)S(=O)(=O)c1ccc(C(F)(F)F)cc1)N*; X4 = N[C@@H](Cc1ccccc1)CN(CC(=O)[*:2])[*:1]; X2 = CC(C)C[C@H](N)CN(CC(=O)[*:2])[*:1]; X1 = O=S(=O)(c1ccc(C(F)(F)F)cc1)*

compound	units	MIC
CC(C)(O/N=C(\C(=O)N[C@@H]1C(=O)N2C(C(=O)[O-])=C(C[n+]3ccccc3)CS[C@H]12)c1csc(N)n1)C(=O)O [CEFTAZIDIME]	µg/mL	1
CC(C)C[C@@H](CN(CC(N)=O)S(=O)(=O)c1ccc(C(F)(F)F)cc1)NC(=O)[C@H](CCCCN)NC(=O)[C@H](CCCCN)NC(=O)[C@H](CC(C)C)NC(=O)[C@H](CC(C)C)NC(=O)[C@H](CCCCN)NC(=O)[C@H](CC(C)C)NC(=O)[C@@H](N)Cc1ccccc1 (H-FLKLLKK-X3)	µg/mL	8
CC(C)C[C@H](N)CN(CC(=O)N[C@@H](CCCCN)C(=O)N[C@@H](CC(C)C)C(=O)N[C@@H](CC(C)C)C(=O)N[C@@H](CCCCN)C(=O)N[C@@H](CCCCN)C(=O)N[C@@H](CC(C)C)C(=O)N[C@@H](CC(C)C)C(N)=O)S(=O)(=O)c1ccc(C(F)(F)F)cc1 (X1-[X2]KLLKKLL-NH2)	µg/mL	4
C[C@H]1[C@H](NC(=O)/C(=N\OC(C)(C)C(=O)O)c2csc(N)n2)C(=O)N1S(=O)(=O)O [AZTREONAM]	µg/mL	8
C[C@@H](O)[C@H]1C(=O)N2C(C(=O)O)=C(SCCNC=N)C[C@H]12 [IMIPENEM ANHYDROUS]	µg/mL	2
CC(C)C[C@H](NC(=O)[C@H](CC(C)C)NC(=O)[C@H](CCCCN)NC(=O)[C@H](CCCCN)NC(=O)[C@H](CC(C)C)NC(=O)[C@H](C)NC(=O)[C@H](CCCCN)NC(=O)CN(C[C@@H](N)Cc1ccccc1)S(=O)(=O)c1ccc(C(F)(F)F)cc1)C(N)=O (X1-[X4]KALKKLL-NH2)	µg/mL	4

* * *

// reported MIC per item
- Test system: Pseudomonas aeruginosa
- measurementNotes: Antimicrobial activity against multidrug-resistant Pseudomonas aeruginosa 124 assessed as inhibition of visible bacterial growth incubated for 18 hrs by broth-dilution method
- Assay type: functional
Numbered stars: 1 amine (or outer) side, 2 acyl side, 3 side chain; on linkers, the order of the positions; unused ones are H or OH. Square brackets hold non-standard residues; d marks the D form. Peptide text beside a SMILES is read from it. * marks the point of attachment. X4 = N[C@@H](Cc1ccccc1)CN(CC(=O)[*:2])[*:1]; X2 = CC(C)C[C@H](N)CN(CC(=O)[*:2])[*:1]; X1 = O=S(=O)(c1ccc(C(F)(F)F)cc1)*

molecule	MIC / µg/mL
CC(C)C[C@H](NC(=O)[C@H](CC(C)C)NC(=O)[C@H](CCCCN)NC(=O)[C@H](CCCCN)NC(=O)[C@H](CC(C)C)NC(=O)[C@H](C)NC(=O)[C@H](CCCCN)NC(=O)CN(C[C@@H](N)Cc1ccccc1)S(=O)(=O)c1ccc(C(F)(F)F)cc1)C(N)=O (X1-[X4]KALKKLL-NH2)	4
CC(C)C[C@H](N)CN(CC(=O)N[C@@H](CCCCN)C(=O)N[C@@H](CC(C)C)C(=O)N[C@@H](CC(C)C)C(=O)N[C@@H](CCCCN)C(=O)N[C@@H](CCCCN)C(=O)N[C@@H](CC(C)C)C(=O)N[C@@H](CC(C)C)C(N)=O)S(=O)(=O)c1ccc(C(F)(F)F)cc1 (X1-[X2]KLLKKLL-NH2)	4
CC(C)(O/N=C(\C(=O)N[C@@H]1C(=O)N2C(C(=O)[O-])=C(C[n+]3ccccc3)CS[C@H]12)c1csc(N)n1)C(=O)O	256

* * *

// reported MIC per item
- Test system: Staphylococcus aureus
- measurementNotes: Antimicrobial activity against methicillin-resistant Staphylococcus aureus 1 assessed as inhibition of visible bacterial growth incubated for 18 hrs by broth-dilution method
- Type: functional
Numbered stars: 1 amine (or outer) side, 2 acyl side, 3 side chain; on linkers, the order of the positions; unused ones are H or OH. Square brackets hold non-standard residues; d marks the D form. Peptide text beside a SMILES is read from it. * marks the point of attachment. X4 = N[C@@H](Cc1ccccc1)CN(CC(=O)[*:2])[*:1]; X2 = CC(C)C[C@H](N)CN(CC(=O)[*:2])[*:1]; X1 = O=S(=O)(c1ccc(C(F)(F)F)cc1)*
quantityMeasured: MIC (µg/mL)

molecule	quantityMeasured	units	recordedResult
CC(C)C[C@H](N)CN(CC(=O)N[C@@H](CCCCN)C(=O)N[C@@H](CC(C)C)C(=O)N[C@@H](CC(C)C)C(=O)N[C@@H](CCCCN)C(=O)N[C@@H](CCCCN)C(=O)N[C@@H](CC(C)C)C(=O)N[C@@H](CC(C)C)C(N)=O)S(=O)(=O)c1ccc(C(F)(F)F)cc1 (X1-[X2]KLLKKLL-NH2)	MIC	µg/mL	4
CC(C)C[C@H](NC(=O)[C@H](CC(C)C)NC(=O)[C@H](CCCCN)NC(=O)[C@H](CCCCN)NC(=O)[C@H](CC(C)C)NC(=O)[C@H](C)NC(=O)[C@H](CCCCN)NC(=O)CN(C[C@@H](N)Cc1ccccc1)S(=O)(=O)c1ccc(C(F)(F)F)cc1)C(N)=O (X1-[X4]KALKKLL-NH2)	MIC	µg/mL	4

* * *

- System: Escherichia coli
- measurementNotes: Antimicrobial activity against Escherichia coli ATCC 25922 assessed as inhibition of visible bacterial growth incubated for 18 hrs by broth-dilution method
- Type: functional
Numbered stars: 1 amine (or outer) side, 2 acyl side, 3 side chain; on linkers, the order of the positions; unused ones are H or OH. Square brackets hold non-standard residues; d marks the D form. Peptide text beside a SMILES is read from it. * marks the point of attachment. X8 = NC(=O)CN(C[C@H](Cc1ccccc1)N*)S(=O)(=O)c1cc(C(F)(F)F)cc(C(F)(F)F)c1; X6 = CC(C)C[C@@H](CN(CC(N)=O)S(=O)(=O)c1cc(C(F)(F)F)cc(C(F)(F)F)c1)N*; X5 = NC(=O)CN(C[C@H](Cc1ccccc1)N*)S(=O)(=O)c1ccc(C(F)(F)F)cc1; X3 = CC(C)C[C@@H](CN(CC(N)=O)S(=O)(=O)c1ccc(C(F)(F)F)cc1)N*; X4 = N[C@@H](Cc1ccccc1)CN(CC(=O)[*:2])[*:1]; X7 = O=S(=O)(c1cc(C(F)(F)F)cc(C(F)(F)F)c1)*; X2 = CC(C)C[C@H](N)CN(CC(=O)[*:2])[*:1]; X1 = O=S(=O)(c1ccc(C(F)(F)F)cc1)*
// reported MIC per item

compound	MIC (µg/mL)
CC(C)C[C@H](NC(=O)[C@H](CC(C)C)NC(=O)[C@H](CCCCN)NC(=O)[C@H](CC(C)C)NC(=O)[C@@H](N)Cc1ccccc1)C(=O)N[C@@H](CCCCN)C(=O)N[C@@H](CCCCN)C(=O)N[C@@H](Cc1ccccc1)CN(CC(N)=O)S(=O)(=O)c1ccc(C(F)(F)F)cc1 (H-FLKLLKK-X5)	32
CC(C)C[C@H](NC(=O)[C@H](CC(C)C)NC(=O)[C@H](CCCCN)NC(=O)[C@H](CC(C)C)NC(=O)[C@@H](N)Cc1ccccc1)C(=O)N[C@@H](CCCCN)C(=O)N[C@@H](CCCCN)C(=O)N[C@@H](Cc1ccccc1)CN(CC(N)=O)S(=O)(=O)c1cc(C(F)(F)F)cc(C(F)(F)F)c1 (H-FLKLLKK-X8)	8
CC(C)C[C@H](NC(=O)[C@H](C)NC(=O)[C@H](CCCCN)NC(=O)[C@H](CC(C)C)NC(=O)[C@@H](N)Cc1ccccc1)C(=O)N[C@@H](CCCCN)C(=O)N[C@@H](CCCCN)C(=O)N[C@@H](Cc1ccccc1)CN(CC(N)=O)S(=O)(=O)c1cc(C(F)(F)F)cc(C(F)(F)F)c1 (H-FLKALKK-X8)	32
CC(C)C[C@H](NC(=O)[C@H](CC(C)C)NC(=O)[C@H](CCCCN)NC(=O)[C@H](CCCCN)NC(=O)[C@H](CC(C)C)NC(=O)[C@H](CC(C)C)NC(=O)[C@H](CCCCN)NC(=O)CN(C[C@@H](N)Cc1ccccc1)S(=O)(=O)c1ccc(C(F)(F)F)cc1)C(N)=O (X1-[X4]KLLKKLL-NH2)	8
CC(C)C[C@@H](CN(CC(N)=O)S(=O)(=O)c1ccc(C(F)(F)F)cc1)NC(=O)[C@H](CCCCN)NC(=O)[C@H](CCCCN)NC(=O)[C@H](CC(C)C)NC(=O)[C@H](CC(C)C)NC(=O)[C@H](CCCCN)NC(=O)[C@H](CC(C)C)NC(=O)[C@@H](N)Cc1ccccc1 (H-FLKLLKK-X3)	16
CC(C)C[C@H](N)CN(CC(=O)N[C@@H](CCCCN)C(=O)N[C@@H](CC(C)C)C(=O)N[C@@H](CC(C)C)C(=O)N[C@@H](CCCCN)C(=O)N[C@@H](CCCCN)C(=O)N[C@@H](CC(C)C)C(=O)N[C@@H](CC(C)C)C(N)=O)S(=O)(=O)c1cc(C(F)(F)F)cc(C(F)(F)F)c1 (X7-[X2]KLLKKLL-NH2)	8
CC1(C)S[C@@H]2[C@H](NC(=O)[C@H](N)c3ccc(O)cc3)C(=O)N2[C@H]1C(=O)O [AMOXICILLIN]	4
CC(C)(O/N=C(\C(=O)N[C@@H]1C(=O)N2C(C(=O)[O-])=C(C[n+]3ccccc3)CS[C@H]12)c1csc(N)n1)C(=O)O [CEFTAZIDIME]	1
CC(C)C[C@H](NC(=O)[C@H](CC(C)C)NC(=O)[C@H](CCCCN)NC(=O)[C@H](CCCCN)NC(=O)[C@H](CC(C)C)NC(=O)[C@H](C)NC(=O)[C@H](CCCCN)NC(=O)CN(C[C@@H](N)Cc1ccccc1)S(=O)(=O)c1ccc(C(F)(F)F)cc1)C(N)=O (X1-[X4]KALKKLL-NH2)	16
CC(C)C[C@H](N)CN(CC(=O)N[C@@H](CCCCN)C(=O)N[C@@H](CC(C)C)C(=O)N[C@@H](CC(C)C)C(=O)N[C@@H](CCCCN)C(=O)N[C@@H](CCCCN)C(=O)N[C@@H](CC(C)C)C(=O)N[C@@H](CC(C)C)C(N)=O)S(=O)(=O)c1ccc(C(F)(F)F)cc1 (X1-[X2]KLLKKLL-NH2)	16
C[C@@H](O)[C@H]1C(=O)N2C(C(=O)O)=C(SCCNC=N)C[C@H]12 [IMIPENEM ANHYDROUS]	1
CN[C@H](CC(C)C)C(=O)N[C@H]1C(=O)N[C@@H](CC(N)=O)C(=O)N[C@H]2C(=O)N[C@H]3C(=O)N[C@H](C(=O)N[C@H](C(=O)O)c4cc(O)cc(O)c4-c4cc3ccc4O)[C@H](O)c3ccc(c(Cl)c3)Oc3cc2cc(c3O[C@@H]2O[C@H](CO)[C@@H](O)[C@H](O)[C@H]2O[C@H]2C[C@](C)(N)[C@H](O)[C@H](C)O2)Oc2ccc(cc2Cl)[C@H]1O [VANCOMYCIN]	256
CC(C)C[C@H](NC(=O)[C@H](CC(C)C)NC(=O)[C@H](CCCCN)NC(=O)[C@H](CCCCN)NC(=O)[C@H](CC(C)C)NC(=O)[C@H](C)NC(=O)[C@H](CCCCN)NC(=O)CN(C[C@@H](N)Cc1ccccc1)S(=O)(=O)c1cc(C(F)(F)F)cc(C(F)(F)F)c1)C(N)=O (X7-[X4]KALKKLL-NH2)	16
CC(C)C[C@@H](CN(CC(N)=O)S(=O)(=O)c1cc(C(F)(F)F)cc(C(F)(F)F)c1)NC(=O)[C@H](CCCCN)NC(=O)[C@H](CCCCN)NC(=O)[C@H](CC(C)C)NC(=O)[C@H](CC(C)C)NC(=O)[C@H](CCCCN)NC(=O)[C@H](CC(C)C)NC(=O)[C@@H](N)Cc1ccccc1 (H-FLKLLKK-X6)	8
CC(C)C[C@H](NC(=O)[C@H](CC(C)C)NC(=O)[C@H](CCCCN)NC(=O)[C@H](CCCCN)NC(=O)[C@H](CC(C)C)NC(=O)[C@H](CC(C)C)NC(=O)[C@H](CCCCN)NC(=O)CN(C[C@@H](N)Cc1ccccc1)S(=O)(=O)c1cc(C(F)(F)F)cc(C(F)(F)F)c1)C(N)=O (X7-[X4]KLLKKLL-NH2)	8
